assayed-target: recombinant HIV protease (Human immunodeficiency virus type 1 group M subtype B)
Construct: recombinant HIV protease
assay-name: HIV Protease Enzyme Inhibition (PI) Activity, fluorogenic enzymatic assay
Type: biochemical
applied-conditions: 10 nM recombinant HIV protease, pH 5.3, 40 μM fluorogenic substrate; read-out: HIV PI IC50
quantity-name: pIC50
Reminder that pIC50 means the negative base-10 logarithm of the concentration expressed in mol/L.

CC(C)(C[C@]1(c2ccc(-c3cccc(F)c3)cc2)NC(=N)N([C@H](COC(=O)NC2(C(F)F)CC2)c2ccc(Cl)c(-c3ncnn3C(F)F)c2)C1=O)C(F)(F)F 8.64
CC(C)(C[C@]1(c2ccc(-c3ccc(S(C)(=O)=O)cc3)cc2)NC(=N)N([C@H](COC(=O)NC2(C(F)F)CC2)c2ccc(Cl)c(-c3ncnn3C(F)F)c2)C1=O)C(F)(F)F 8.74
CC(C)(C[C@]1(c2ccc(-c3ccc(S(C)(=O)=O)cc3F)cc2)NC(=N)N([C@H](COC(=O)NC2(C(F)F)CC2)c2ccc(Cl)c(-c3ncnn3C(F)F)c2)C1=O)C(F)(F)F 8.62
CC(C)(C[C@]1(c2ccc(-c3cnn(C(F)F)c3)cc2)NC(=N)N([C@H](COC(=O)NC2(C(F)F)CC2)c2ccc(Cl)c(-c3ncnn3C(F)F)c2)C1=O)C(F)(F)F 8.74
CC(C)(C[C@]1(c2ccc(-c3ccc(F)cc3)cc2)NC(=N)N([C@H](COC(=O)NC2(C(F)F)CC2)c2ccc(Cl)c(-c3ncnn3C(F)F)c2)C1=O)C(F)(F)F 8.35

Query: Give pIC50 for CC(C)(C[C@]1(c2ccc(-c3ccc(S(C)(=O)=O)c(F)c3)cc2)NC(=N)N([C@H](COC(=O)NC2(C(F)F)CC2)c2ccc(Cl)c(-c3ncnn3C(F)F)c2)C1=O)C(F)(F)F
Reply: 8.54

Query: Specify reported pIC50 for the compound shown: CC(C)(C[C@]1(c2ccc(-c3cccc(S(C)(=O)=O)c3)cc2)NC(=N)N([C@H](COC(=O)NC2(C(F)F)CC2)c2ccc(Cl)c(-c3ncnn3C(F)F)c2)C1=O)C(F)(F)F
Reply: 8.54

Query: Supply pIC50 value. Item: CC(C)(C[C@]1(c2ccc(-c3ccn(C(F)F)n3)cc2)NC(=N)N([C@H](COC(=O)NC2(C(F)F)CC2)c2ccc(Cl)c(-c3ncnn3C(F)F)c2)C1=O)C(F)(F)F
Reply: 8.70

Each recorded value in this set is attributed to patent US11318119B2.
